# experimental target: binding partner of C5A (XPA23)
# assay method text: Biacore K-off
measured metric: fold difference in affinity vs original (fold)
Answer format: numeric, fold implied, no suffix.

C5A (XPA23) VH F33I (antibody, V domains shown) VH: EVQLLESGGGLVQPGGSLRLSCAASGFTFSKYIMFWVRQAPGKGLEWVSVISPSGGMTRYADSVKGRFTISRDNSKNTLYLQMNSLRAEDTAVYYCARVGYGGNSDYWGQGTLVTVSS VL: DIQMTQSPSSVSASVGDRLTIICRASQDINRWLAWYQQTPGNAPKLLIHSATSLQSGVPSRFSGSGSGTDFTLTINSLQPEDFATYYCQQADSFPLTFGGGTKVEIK: 0.75

input: Any idea what fold difference in affinity vs original was measured for C5A (XPA23) VL H49A (antibody, V domains shown) VH: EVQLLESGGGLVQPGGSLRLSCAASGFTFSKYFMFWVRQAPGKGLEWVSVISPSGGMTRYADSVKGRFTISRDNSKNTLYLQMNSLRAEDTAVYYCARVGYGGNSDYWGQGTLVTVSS VL: DIQMTQSPSSVSASVGDRLTIICRASQDINRWLAWYQQTPGNAPKLLIASATSLQSGVPSRFSGSGSGTDFTLTINSLQPEDFATYYCQQADSFPLTFGGGTKVEIK ?
output: 0.23

Numbers sourced from patent US20110118447A1.
